biological target: N protein full-length (SARS-CoV-2 (Wuhan-Hu-1), UniProt P0DTC9 1-419); assay: fluorescence anisotropy; Hill slope 2.3; 10 mM Tris-HCl pH 7.4, 150 mM NaCl, 1 mM MgCl2; FA with 0.1 mg/ml BSA at 25 C; BLI with 0.05% Tween-20; SEC at ambient temperature; conditions: protein: recombinant; tags: 6xHis-thioredoxin removed by HRV 3C; chain copies: 2; hairpin
Parameter: pKd
In simple prose, pKd is minus the logarithm base ten of a concentration in moles per litre.

Query TCGGACATCGGATTGTCTGA (ssDNA) [A58-20] yields pKd of 7.11
